Quick reference for IC50 among some compounds
Molecular target: Recombinant STAT3 protein (STAT3 (G127-I722)) (Homo sapiens)
Construct: Recombinant STAT3 protein (STAT3 (G127-I722))
Sequence (P40763 127-722): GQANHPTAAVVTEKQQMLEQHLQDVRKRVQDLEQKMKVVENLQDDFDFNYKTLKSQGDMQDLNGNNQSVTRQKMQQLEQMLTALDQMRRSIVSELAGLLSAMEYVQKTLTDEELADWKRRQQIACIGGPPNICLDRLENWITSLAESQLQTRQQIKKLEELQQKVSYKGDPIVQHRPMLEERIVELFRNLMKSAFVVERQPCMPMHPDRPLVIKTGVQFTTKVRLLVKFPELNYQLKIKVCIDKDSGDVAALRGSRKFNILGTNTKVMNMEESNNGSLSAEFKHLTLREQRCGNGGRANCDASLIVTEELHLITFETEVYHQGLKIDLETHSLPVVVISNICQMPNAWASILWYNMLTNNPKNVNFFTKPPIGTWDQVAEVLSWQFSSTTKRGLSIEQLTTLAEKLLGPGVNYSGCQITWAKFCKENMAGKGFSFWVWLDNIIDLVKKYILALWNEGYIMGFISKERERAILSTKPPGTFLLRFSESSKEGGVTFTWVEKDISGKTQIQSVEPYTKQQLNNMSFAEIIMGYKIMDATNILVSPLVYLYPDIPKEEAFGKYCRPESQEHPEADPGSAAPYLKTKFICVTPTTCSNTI
Experiment: STAT3 Fluorescence Polarization (FP) Assay
Format: binding
Details: STAT3 (G127-I722) 25 nM, probe 5-FAM-GpYLPQTV-NH2 2 nM, 45-minute incubation; read-out: STAT3 (FP assay IC50 class)

compound	IC50
O=C(N[C@H]1CCC[C@H]2CC[C@@H](C(=O)N3CC(c4cccnc4)CC34CC4)N2C1=O)c1ccc2ccc(C(F)P(=O)(O)O)cc2c1 (stereo partly drawn)	1000 to 10000 nM
N#C[C@@H]1[C@@H](c2cccnc2)CN(C(=O)[C@@H]2CC[C@@H]3CCCC[C@H](NC(=O)c4cc5cc([C@H](F)P(=O)(O)O)ccc5s4)C(=O)N32)C12CC2 (single isomer, unassigned) [Compound 840]	1000 to 10000 nM
CC1(C)C[C@H](c2ccccc2)CN1C(=O)[C@@H]1CC[C@@H]2CCCC[C@H](NC(=O)c3cc4cc(C(F)(F)P(=O)(O)O)ccc4s3)C(=O)N21	1000 to 10000 nM
O=C(N[C@H]1CCCC[C@H]2CC[C@@H](C(=O)N3CC(c4ccccc4)CC34CC4)N2C1=O)c1ccc2ccc(CP(=O)(O)O)cc2c1 (stereo partly drawn)	1000 to 10000 nM
Cn1ncc(C2CCN(C(=O)[C@@H]3CC[C@@H]4CCCC[C@H](NC(=O)c5ccc6ccc(C(F)P(=O)(O)O)cc6c5)C(=O)N43)C2)cc1=O (stereo partly drawn)	1000 to 10000 nM
O=C(N[C@H]1CCC[C@H]2CC[C@@H](C(=O)N3CC(c4cnccc4N4C[C@H]5C[C@@H]4CO5)C3)N2C1=O)c1cc2cc(C(F)P(=O)(O)O)ccc2s1 (stereo partly drawn)	< 100 nM
CC(c1ccc2ccc(C(=O)N[C@H]3CCCC[C@H]4CC[C@@H](C(=O)N5C[C@@H](c6ccccc6)CC56CC6)N4C3=O)cc2c1)P(=O)(O)O (single isomer, unassigned)	1000 to 10000 nM
N#Cc1ccncc1C1CN(C(=O)[C@@H]2CC[C@@H]3CCC[C@H](NC(=O)c4cc5cc(CP(=O)(O)O)ccc5s4)C(=O)N32)C1	1000 to 10000 nM
COc1ccncc1C1CN(C(=O)[C@@H]2CC[C@@H]3CCC[C@H](NC(=O)c4cc5cc([C@@H](F)P(=O)(O)O)ccc5s4)C(=O)N32)C1 (single isomer, unassigned)	< 100 nM
COCC1CN(c2ccncc2C2CN(C(=O)[C@@H]3CC[C@@H]4CCC[C@H](NC(=O)c5cc6cc([C@@H](F)P(=O)(O)O)ccc6s5)C(=O)N43)C2)C1	< 100 nM
O=C(N[C@H]1CCCC[C@H]2CC[C@@H](C(=O)N[C@H]3COCC3F)N2C1=O)c1cc2cc(C(F)(F)P(=O)(O)O)ccc2s1 (relative stereo)	100 to 1000 nM
O=C(N[C@H]1CCC[C@H]2CC[C@@H](C(=O)N3CC(c4ccccc4O)C3)N2C1=O)c1cc2cc(C(F)P(=O)(O)O)ccc2s1 (stereo partly drawn)	< 100 nM
COc1cncc([C@H]2CN(C(=O)[C@@H]3CC[C@@H]4CCCC[C@H](NC(=O)c5cc6cc([C@H](F)P(=O)(O)O)ccc6s5)C(=O)N43)C3(CC3)[C@@H]2C#N)c1 (single isomer, unassigned)	1000 to 10000 nM
C[C@@H]1C[C@H]2CC[C@@H](C(=O)N3CC(c4cnccc4F)C3)N2C(=O)[C@@H](NC(=O)c2cc3cc(C(F)P(=O)(O)O)ccc3s2)C1 (stereo partly drawn)	< 100 nM
Cn1ccc(N2CC[C@@H](NC(=O)[C@@H]3CC[C@@H]4CCCC[C@H](NC(=O)c5cc6cc(C(F)P(=O)(O)O)ccc6s5)C(=O)N43)C2)n1 (stereo partly drawn)	1000 to 10000 nM
CN1CCN(c2ccncc2C2CN(C(=O)[C@@H]3CC[C@@H]4CCC[C@H](NC(=O)c5cc6cc([C@@H](F)P(=O)(O)O)ccc6s5)C(=O)N43)C2)C1=O	100 to 1000 nM
C[C@H]1C[C@H]2CC[C@@H](C(=O)N3C[C@H](c4ccccc4)[C@@H](C#N)C34CC4)N2C(=O)[C@@H](NC(=O)c2cc3cc([C@H](F)P(=O)(O)O)ccc3s2)C1	1000 to 10000 nM
Cn1cnnc1C1CN(C(=O)[C@@H]2CC[C@@H]3CCC[C@H](NC(=O)c4cc5cc(C(F)(F)P(=O)(O)O)ccc5s4)C(=O)N32)C1	< 100 nM
Cn1cc(C2CN(C(=O)[C@@H]3CC[C@@H]4CCC[C@H](NC(=O)c5cc6cc(C(F)P(=O)(O)O)ccc6s5)C(=O)N43)C2)cn1 (stereo partly drawn)	1000 to 10000 nM
C[C@H]1C[C@H]2CC[C@@H](C(=O)N3C[C@@H](C#N)[C@H](c4ccccc4)C3)N2C(=O)[C@@H](NC(=O)c2cc3cc(C(F)(F)P(=O)(O)O)ccc3s2)C1 (single isomer, unassigned)	100 to 1000 nM
Cc1cc(C2CN(C(=O)[C@@H]3CC[C@@H]4CCC[C@H](NC(=O)c5cc6cc(C(F)P(=O)(O)O)ccc6s5)C(=O)N43)C2)ccn1 (stereo partly drawn)	< 100 nM
